Listed here are compounds together with their documented residual activity.
- Target or system: PDPK1 (human)
- Protocol summary: radiometric filter-binding kinase assay, Kinase HotSpot
- Run parameters: compound 0.5 µM; ATP 10 µM

# Smiles str, Target or system, Reading unit, residual activity
rows = [
    ("COc1ccc(C(=O)Nc2sc3c(c2C(N)=O)CCCC3)cc1OC", "PDPK1 (human)", "%", 87.8),
    ("N#Cc1c[nH]c2c[nH]/c(=N\\Cc3cccnc3)cc2/c1=N\\c1ccc(F)c(Cl)c1", "PDPK1 (human)", "%", 85.3),
    ("O=C1C(Cl)=C(N2C(=O)CCC2=O)C(=O)c2ccccc21", "PDPK1 (human)", "%", 100),
    ("COc1ccc2c(c1)c(C1=C(c3c[nH]c4ccccc34)C(=O)NC1=O)cn2CCCN(C)C", "PDPK1 (human)", "%", 76.7),
    ("CS(=O)(=O)CCNCc1ccc(-c2ccc3ncnc(Nc4ccc(OCc5cccc(F)c5)c(Cl)c4)c3c2)o1", "PDPK1 (human)", "%", 86.4),
    ("Fc1ccc(-c2nc3n(c2-c2ccncc2)CCS3)cc1", "PDPK1 (human)", "%", 109),
    ("Cn1c2ccccc2c2c3c(c4c5ccccc5n(CCC#N)c4c21)CNC3=O", "PDPK1 (human)", "%", 63.2),
]

###

- Target or system: STK10 (human) (UniProt O94804)
- Sequence (O94804 whole entry, looked up): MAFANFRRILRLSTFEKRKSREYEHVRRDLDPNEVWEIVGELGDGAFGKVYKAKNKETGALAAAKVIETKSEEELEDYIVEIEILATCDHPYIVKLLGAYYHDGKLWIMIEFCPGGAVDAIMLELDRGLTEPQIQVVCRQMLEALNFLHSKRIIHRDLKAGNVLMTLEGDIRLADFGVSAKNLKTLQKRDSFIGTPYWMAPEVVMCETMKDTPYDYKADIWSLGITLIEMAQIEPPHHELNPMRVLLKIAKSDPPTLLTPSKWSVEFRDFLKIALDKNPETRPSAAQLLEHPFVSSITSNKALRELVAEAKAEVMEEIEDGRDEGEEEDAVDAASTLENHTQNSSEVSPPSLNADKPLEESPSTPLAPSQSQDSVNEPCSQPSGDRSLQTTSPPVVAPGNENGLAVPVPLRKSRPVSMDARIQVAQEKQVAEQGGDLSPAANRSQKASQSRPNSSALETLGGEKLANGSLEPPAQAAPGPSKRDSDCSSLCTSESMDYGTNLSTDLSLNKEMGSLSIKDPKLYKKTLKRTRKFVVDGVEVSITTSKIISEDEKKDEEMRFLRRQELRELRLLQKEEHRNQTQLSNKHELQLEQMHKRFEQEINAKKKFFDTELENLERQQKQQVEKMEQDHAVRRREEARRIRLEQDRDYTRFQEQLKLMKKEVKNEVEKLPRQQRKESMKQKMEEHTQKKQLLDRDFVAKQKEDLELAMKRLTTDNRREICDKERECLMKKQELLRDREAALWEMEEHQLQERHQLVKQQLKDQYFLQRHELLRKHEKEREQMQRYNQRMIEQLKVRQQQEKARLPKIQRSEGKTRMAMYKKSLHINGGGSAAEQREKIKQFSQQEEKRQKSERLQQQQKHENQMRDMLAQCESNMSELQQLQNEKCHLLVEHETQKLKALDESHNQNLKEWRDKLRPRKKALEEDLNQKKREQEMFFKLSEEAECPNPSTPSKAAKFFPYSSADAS
- Protocol summary: radiometric filter-binding kinase assay, Kinase HotSpot
- Run parameters: compound 0.5 µM; ATP 10 µM
Assign labels as follows, please: Met for residual activity below 70%; Not met for residual activity equal to or exceeding 70%.

# Smiles str, Label
rows = [
    ("CCCCc1c(-c2ccc(OC)cc2)[nH]c2nccnc12", "Not met"),
    ("CN(C)c1ccc(/C=C2\\C(=O)Nc3ccccc32)cc1", "Not met"),
    ("Cn1c2ccccc2c2c3c(c4c5ccccc5n(CCC#N)c4c21)CNC3=O", "Met"),
    ("COc1ccc2c(c1)c(C1=C(c3c[nH]c4ccccc34)C(=O)NC1=O)cn2CCCN(C)C", "Met"),
    ("CS(=O)(=O)CCNCc1ccc(-c2ccc3ncnc(Nc4ccc(OCc5cccc(F)c5)c(Cl)c4)c3c2)o1", "Not met"),
]

###

- Target or system: TSSK2 (human) (UniProt Q96PF2)
- Sequence (Q96PF2 whole entry, looked up): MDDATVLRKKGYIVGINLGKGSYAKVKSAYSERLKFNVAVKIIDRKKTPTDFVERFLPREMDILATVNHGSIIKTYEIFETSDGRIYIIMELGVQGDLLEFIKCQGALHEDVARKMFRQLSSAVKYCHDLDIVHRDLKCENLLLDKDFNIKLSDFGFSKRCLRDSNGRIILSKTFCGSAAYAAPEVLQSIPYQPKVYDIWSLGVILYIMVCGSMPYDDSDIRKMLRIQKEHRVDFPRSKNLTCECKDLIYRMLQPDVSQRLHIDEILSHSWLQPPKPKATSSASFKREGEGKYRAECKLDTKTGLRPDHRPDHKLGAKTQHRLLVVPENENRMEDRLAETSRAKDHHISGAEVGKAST
- Protocol summary: radiometric filter-binding kinase assay, Kinase HotSpot
- Run parameters: compound 0.5 µM; ATP 10 µM
Quantity: residual activity (%)

# Smiles str, Quantity, Result
measured = [
    ("Ic1cccc(CSc2nnc(-c3ccncc3)o2)c1", "residual activity", 110),
    ("CS(=O)(=O)CCNCc1ccc(-c2ccc3ncnc(Nc4ccc(OCc5cccc(F)c5)c(Cl)c4)c3c2)o1", "residual activity", 89.9),
    ("Cn1c2ccccc2c2c3c(c4c5ccccc5n(CCC#N)c4c21)CNC3=O", "residual activity", 74.3),
    ("NC(=O)c1cccc(-c2cc(Nc3ccc(OC(F)(F)F)cc3)ncn2)c1", "residual activity", 97),
    ("Cc1nc(-c2ccccc2)c(-c2ccncc2)o1", "residual activity", 90.1),
    ("COc1cc2ncnc(Nc3ccc(OCc4ccccc4)cc3)c2cc1OC", "residual activity", 104),
    ("COc1ccc2c(c1)c(C1=C(c3c[nH]c4ccccc34)C(=O)NC1=O)cn2CCCN(C)C", "residual activity", 85.5),
    ("O=C1C(Cl)=C(N2C(=O)CCC2=O)C(=O)c2ccccc21", "residual activity", 103),
    ("COc1ccc(C(=O)Nc2sc3c(c2C(N)=O)CCCC3)cc1OC", "residual activity", 94.6),
    ("O=C1c2ccccc2-c2nc3nnnn3nc21", "residual activity", 75),
    ("COc1cc(Nc2c(C#N)cnc3cc(OCCCN4CCN(C)CC4)c(OC)cc23)c(Cl)cc1Cl", "residual activity", 83.9),
    ("CC(C)(C)c1cc(C=C(C#N)C#N)cc(Br)c1O", "residual activity", 96.6),
    ("Fc1ccc(-c2nc3n(c2-c2ccncc2)CCS3)cc1", "residual activity", 93.2),
    ("COc1cc2ncnc(Nc3ccc(Oc4ccccc4)cc3)c2cc1OC", "residual activity", 103),
    ("CN(C)c1ccc(/C=C2\\C(=O)Nc3ccccc32)cc1", "residual activity", 101),
    ("COc1ccc2c(c1)/C(=C/c1cnc[nH]1)C(O)=N2", "residual activity", 97.3),
    ("CCCCc1c(-c2ccc(OC)cc2)[nH]c2nccnc12", "residual activity", 93.7),
    ("O=C1Nc2ccc(Br)cc2/C1=C\\c1cc2c([nH]1)CCCC2", "residual activity", 89.8),
    ("CO[C@@H]1[C@H](N(C)C(=O)c2ccccc2)C[C@H]2O[C@]1(C)n1c3ccccc3c3c4c(c5c6ccccc6n2c5c31)C(=O)NC4", "residual activity", 89.1),
    ("Cc1cncc2cccc(S(=O)(=O)N3CCCN(C(=O)CN)C[C@H]3C)c12", "residual activity", 99.6),
    ("COc1ccc(S(=O)(=O)N(CCO)c2ccccc2CN(C)C/C=C/c2ccc(Cl)cc2)cc1", "residual activity", 107),
]
